Give measured Papp at 2 h for each item. Keep answers brief.
- ASSAY NAME: Human Caco-2 bidirectional permeability A to B and B to A
- Assay type: in vitro ADME
- TEST PARAMETERS: Caco-2, 2 hours, pH 7.4
Answers are plain numbers, in ×10⁻⁶ cm/s.

>>> df
                                smiles_code  test_result
0  COc1cc(NC2CN(CCCF)C2)ccc1[C@@H]1c2ccc3[nH]ncc3c2C[C@@H](C)N1CC(C)(F)F          4.2
1  COc1cc(NC2CN(CCCF)C2)ccc1[C@@H]1c2ccc3[nH]ncc3c2C[C@@H](C)N1CC(F)(F)CO          0.7
2  C[C@@H]1Cc2c(ccc3[nH]ncc23)[C@@H](c2c(F)cc(NC3CN(CCCF)C3)cc2F)N1CC1(F)CC1          1.6

Parameters: items (list). Returns: Papp at 2 h for each item.
1. COc1cc(NC2CN(CCCF)C2)ccc1[C@@H]1c2ccc3[nH]ncc3c2C[C@@H](C)N1CC1(F)CC1
2. C[C@@H]1Cc2c(ccc3[nH]ncc23)[C@@H](c2ccc(NC3CN(CCCF)C3)cn2)N1CC(F)(F)CO
3. C[C@@H]1Cc2c(ccc3[nH]ncc23)[C@@H](c2ccc(NC3CN(CCCF)C3)cc2)N1CC(F)(F)F
4. COCC(F)(F)CN1[C@H](c2ccc(NC3CN(CCCF)C3)cc2OC)c2ccc3[nH]ncc3c2C[C@H]1C
5. COc1cc(NC2CN(CCCF)C2)ccc1[C@@H]1c2ccc3[nH]ncc3c2C[C@@H](C)N1CC(F)(F)F

Result:
1. 0.9
2. 1.6
3. 5.4
4. 0.9
5. 1.2

* * *

- TEST TARGET: recombinant human Estrogen Receptor alpha ligand binding domain (ER alpha-LBD (GST)) (Homo sapiens (Human))
- Sequence (P03372 307-554): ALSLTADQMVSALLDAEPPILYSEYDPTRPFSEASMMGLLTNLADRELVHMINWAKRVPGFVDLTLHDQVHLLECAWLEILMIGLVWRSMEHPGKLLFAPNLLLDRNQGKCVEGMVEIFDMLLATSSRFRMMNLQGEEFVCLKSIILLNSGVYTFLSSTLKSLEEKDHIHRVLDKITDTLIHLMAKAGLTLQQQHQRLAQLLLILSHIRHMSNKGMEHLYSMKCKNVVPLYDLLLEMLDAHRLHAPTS
- ASSAY NAME: ERα binding assay (LanthaScreen TR-FRET competition)
- TEST PARAMETERS: TR-FRET, displacement of Fluormone ES2
ENDPOINT NAME: IC50 (nM)
Numbers only, in nM.

Field: example entries. Status: answers known.
>>> df
                                smiles_code  endpoint_name  unit_abbrev  test_result
0  C[C@@H]1Cc2c(ccc3[nH]ncc23)[C@@H](c2ccc(N(C)C3CN(CCCF)C3)cn2)N1CC(F)F           IC50           nM          4.1
1  C[C@@H]1Cc2c(ccc3[nH]ncc23)[C@@H](c2ccc(NC3CN(CCCF)C3)cn2)N1CC(F)F           IC50           nM          4.1
2  C[C@@H]1Cc2c(ccc3[nH]ncc23)[C@@H](c2ccc(NC3CN(CCCF)C3)cc2)N1CC(F)(F)F           IC50           nM         0.81

Parameters: items (list). Returns: IC50 for each item.
1. C[C@@H]1Cc2c(ccc3[nH]nc(F)c23)[C@@H](c2ncc(NC3CN(CCCF)C3)cc2F)N1CC(F)(F)F
2. COc1cc(NC2CN(CCCF)C2)c(F)cc1[C@@H]1c2ccc3[nH]ncc3c2C[C@@H](C)N1CC1(F)CC1
3. CCOc1cc(NC2CN(CCCF)C2)ccc1[C@@H]1c2ccc3[nH]ncc3c2C[C@@H](C)N1CC1(F)CC1
4. COCC(F)(F)CN1[C@H](c2ccc(NC3CN(CCCF)C3)cn2)c2ccc3[nH]ncc3c2C[C@H]1C

Result:
1.4
5.7
15
2.8

* * *

Give measured efflux ratio at 2 h for each item. Keep answers brief.
- ASSAY NAME: Human Caco-2 bidirectional permeability A to B and B to A
- Format: in vitro ADME
- TEST PARAMETERS: Caco-2, pH 7.4
One number for each entry.

Field: example entries. Status: answers known.
                                smiles_code        endpoint_name  test_result
0  C[C@@H]1Cc2c(ccc3[nH]ncc23)[C@@H](c2c(F)cc(NC3CN(CCCF)C3)cc2F)N1CC1(F)CC1  efflux ratio at 2 h          1.4
1  C[C@@H]1Cc2c(ccc3[nH]ncc23)[C@@H](c2ccc(NC3CN(CCCF)C3)cn2)N1CC(F)(F)CO  efflux ratio at 2 h          9.7
2  COc1cc(NC2CN(CCCF)C2)ccc1[C@@H]1c2ccc3[nH]ncc3c2C[C@@H](C)N1CC1(F)CC1  efflux ratio at 2 h           28
3  C[C@@H]1Cc2c(ccc3[nH]ncc23)[C@@H](c2ccc(NC3CN(CCCF)C3)cn2)N1CC(F)F  efflux ratio at 2 h          7.4

Parameters: items (list). Returns: efflux ratio at 2 h for each item.
1. COc1cc(NC2CN(CCCF)C2)ccc1[C@@H]1c2ccc3[nH]ncc3c2C[C@@H](C)N1CC(F)(F)F
2. C[C@@H]1Cc2c(ccc3[nH]ncc23)[C@@H](c2ccc(NC3CN(CCCF)C3)cn2)N1CC1(F)CC1
3. C[C@@H]1Cc2c(ccc3[nH]ncc23)[C@@H](c2ccc(NC3CN(CCCF)C3)cc2)N1CC(F)(F)F

Result:
3.8
9.2
0.9

* * *

- ASSAY NAME: Human plasma protein binding (equilibrium dialysis)
- Assay type: in vitro ADME
- TEST PARAMETERS: dialysis 18 hours
// map Human plasma protein binding (% free) to label using low bin: < 20 % free; mid bin: ≥ 20 % free and < 30 % free; high bin: ≥ 30 % free

>>> df
                                   compound     label
0  CC(C)CN1[C@H](c2ccc(NC3CN(CCCF)C3)cn2)c2ccc3[nH]ncc3c2C[C@H]1C  high bin
1  COc1cc(OC2CN(CCCF)C2)ccc1[C@@H]1c2ccc3[nH]ncc3c2C[C@@H](C)N1CC(F)F   low bin

Task: Note: place this compound into its band. Item: COc1cc(NC2CN(CCCF)C2)ccc1[C@@H]1c2ccc3[nH]ncc3c2C[C@@H](C)N1CC(C)F (single isomer, unassigned) [Example 68]
Result: high bin

Task: Note: place this compound into its band. Item: `C[C@@H]1Cc2c(ccc3[nH]ncc23)[C@@H](c2ncc(NC3CN(CCCF)C3)cc2F)N1CC(F)F`
Result: high bin

Task: Note: place this compound into its band. Item: `COCC(F)(F)CN1[C@H](c2ccc(NC3CN(CCCF)C3)cc2OC)c2ccc3[nH]ncc3c2C[C@H]1C`
Result: low bin

Task: Note: place this compound into its band. Item: `FCCCN1CC(Nc2ccc([C@@H]3c4ccc5[nH]ncc5c4C[C@@H](C(F)F)N3CC(F)F)nc2)C1`
Result: mid bin

Task: Note: place this compound into its band. Item: `C[C@@H]1Cc2c(ccc3[nH]ncc23)[C@@H](c2ccc(NC3CN(CCCF)C3)cn2)N1CC(F)(F)F`
Result: mid bin

Task: Note: place this compound into its band. Item: `C[C@@H]1Cc2c(ccc3[nH]ncc23)[C@@H](c2ccc(NC3CN(CCCF)C3)nc2)N1CC1(F)CC1`
Result: high bin

Task: Note: place this compound into its band. Item: `C[C@@H]1Cc2c(ccc3[nH]ncc23)[C@@H](c2ccc(NC3CN(CCCF)C3)cn2)N1CC(F)F`
Result: high bin

* * *

- TEST TARGET: estrogen receptor (ERα) in CAMA-1 cells (Homo sapiens (Human), UniProt P03372)
- Sequence (P03372 whole entry): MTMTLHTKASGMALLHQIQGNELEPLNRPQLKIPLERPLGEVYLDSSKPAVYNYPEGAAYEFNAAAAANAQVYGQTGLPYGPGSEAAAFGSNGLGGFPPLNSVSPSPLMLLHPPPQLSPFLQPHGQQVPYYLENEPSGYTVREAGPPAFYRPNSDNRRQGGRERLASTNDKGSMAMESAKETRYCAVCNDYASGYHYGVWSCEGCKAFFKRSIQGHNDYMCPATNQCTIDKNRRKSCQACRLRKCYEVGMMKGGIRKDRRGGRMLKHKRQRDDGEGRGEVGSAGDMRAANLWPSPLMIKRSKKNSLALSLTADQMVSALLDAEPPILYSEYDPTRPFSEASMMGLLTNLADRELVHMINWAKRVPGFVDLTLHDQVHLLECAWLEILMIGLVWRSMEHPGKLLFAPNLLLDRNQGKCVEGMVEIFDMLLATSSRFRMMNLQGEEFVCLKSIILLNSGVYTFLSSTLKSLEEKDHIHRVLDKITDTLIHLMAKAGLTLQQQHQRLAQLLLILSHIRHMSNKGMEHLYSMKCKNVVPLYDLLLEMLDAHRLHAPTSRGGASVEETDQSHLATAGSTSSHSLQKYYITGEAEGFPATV
- ASSAY NAME: Western blotting assay, ER down-regulation in CAMA-1
- Assay type: cell-based
- TEST PARAMETERS: 100 nM compound, 48 h, normalised to 100 nM fulvestrant
- Protocol: Cells were incubated with compounds (100 nM) or vehicle control (0.1% DMSO) for 48 h at 37° C., 5% CO2 before washing once with PBS and lysing with 80 μl lysis buffer (25 mM Tris/HCl, 3 mM EDTA, 3 mM EGTA, 50 mM NaF, 2 mM sodium orthovanadate, 0.27 M sucrose, 10 mM β-glycerophosphate, 5 mM sodium pyrophosphate, 0.5% TritonX-100, pH 6.8) on ice. Samples were boiled for 10 min at 95° C. and then frozen at −20° C. until ready for use. […]
Give measured CAMA1 Western % ER deg vs Fv for each item. Keep answers brief.
Answers are plain numbers, in %.

Field: example entries. Status: answers known.
In [3]: df
Out[3]:
                                smiles_code                               test_target  test_result
0  C[C@@H]1Cc2c(ccc3[nH]ncc23)[C@@H](c2ncc(NC3CN(CCCF)C3)cc2F)N1CC(F)F  estrogen receptor (ERα) in CAMA-1 cells (Homo sapiens (Human), UniProt P03372)          102
1  C[C@@H]1Cc2c(ccc3[nH]ncc23)[C@@H](c2ccc(N(C)C3CN(CCCF)C3)cn2)N1CC(F)(F)F  estrogen receptor (ERα) in CAMA-1 cells (Homo sapiens (Human), UniProt P03372)           82
2  C[C@@H]1Cc2c(ccc3[nH]ncc23)[C@@H](c2ccc(NC3CN(CCCF)C3)cn2)N1CC(F)F  estrogen receptor (ERα) in CAMA-1 cells (Homo sapiens (Human), UniProt P03372)           96
3  COc1cc(NC2CN(CCCF)C2)ccc1[C@@H]1c2ccc3[nH]ncc3c2C[C@@H](C)N1CC(C)(F)F  estrogen receptor (ERα) in CAMA-1 cells (Homo sapiens (Human), UniProt P03372)           94
4  C[C@@H]1Cc2c(ccc3[nH]ncc23)[C@@H](c2c(F)cc(NC3CN(CCCF)C3)cc2F)N1CC(F)F  estrogen receptor (ERα) in CAMA-1 cells (Homo sapiens (Human), UniProt P03372)           99
5  C[C@@H]1Cc2c(ccc3[nH]ncc23)[C@@H](c2ccc(NC3CN(CCCF)C3)cc2)N1CC(F)(F)F  estrogen receptor (ERα) in CAMA-1 cells (Homo sapiens (Human), UniProt P03372)          108

# context switch: different compound, same CAMA1 Western % ER deg vs Fv
Task: Entry `COc1cc(NC2CN(CCCF)C2)ncc1[C@@H]1c2ccc3[nH]ncc3c2C[C@@H](C)N1CC1(F)CC1` has what CAMA1 Western % ER deg vs Fv?
Result: 25

Numbers sourced from patent US10131663B2.
